Target: T1, human GIP receptor (human), P48546
T1 chain: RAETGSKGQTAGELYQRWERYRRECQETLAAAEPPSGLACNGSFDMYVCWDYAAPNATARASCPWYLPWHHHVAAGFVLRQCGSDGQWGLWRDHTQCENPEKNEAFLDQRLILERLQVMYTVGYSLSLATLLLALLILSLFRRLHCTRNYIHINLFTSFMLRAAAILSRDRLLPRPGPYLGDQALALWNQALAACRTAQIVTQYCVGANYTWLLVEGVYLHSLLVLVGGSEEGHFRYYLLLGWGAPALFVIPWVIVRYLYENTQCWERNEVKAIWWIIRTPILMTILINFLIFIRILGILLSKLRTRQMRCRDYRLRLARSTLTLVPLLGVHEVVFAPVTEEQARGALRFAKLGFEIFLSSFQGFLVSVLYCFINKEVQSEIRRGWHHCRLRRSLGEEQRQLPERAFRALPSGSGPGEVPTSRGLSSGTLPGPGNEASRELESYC
Test Method Notes: 125I-GIP displacement by 10 nM analog, HEK-GIPR membranes
Task for the reader: assign each of the following binders its reported % Inh at 10 nM.
Answers are plain numbers, in %.

Worked examples follow.
HGEGTFISDYSIAMDKIHQQDFVNWLLAQKPKKIRYS (modifications not checked) [0601GIP4839]: 23.9
LYAEGTFISDYSIAMDKIHQQDFVNWLLAQKPKKIRYS (modifications not checked) [0601GIP4798]: 82.3
LYAEGTFISDYSIALDKIAQQEFVNWLLAQKPKKIRYS (modifications not checked) [0601GIP4802]: 87.3
YSEGTFISDYSIAMDKIHQQDFVNWLLAQKPKKIRYS (modifications not checked) [0601GIP4538]: 94.2
YAEGTFISDYSIAMDKIHQQDFVNWLLAQKPKKLKPS (modifications not checked) [0601GIP4822]: 95.4

Could you tell me % Inh at 10 nM for each of these binders? They are listed below.
1. YAEGTFISDYSIALDKIRQQEFVNWLLAQKPKKIRYS (modifications not checked) [0601GIP4539]
2. YAEGTFISDYSIALDKIRQQDFVEWLLAQKPKKIRYS (modifications not checked) [0601GIP4540]
3. YAEGTFISDYSIAMDKIHQQDFVNWLLAQKPKKIRYA (modifications not checked) [0601GIP4819]
4. YAEGTFISDYSIAMDKIHQQDFVPWLLAQKPKKIRYS (modifications not checked) [0601GIP4768]
5. YAEGTFISDYSIAMDKIHQQDFVNWLLAQKPAKIRYS (modifications not checked) [0601GIP4815]
6. YAEGTFISDYSIAMDKIHQQDFVNWLLAQKPKAIRYS (modifications not checked) [0601GIP4816]

## Output
1: 98.7; 2: 92.2; 3: 80.4; 4: 17.9; 5: 89; 6: 87.3
